# System: KM20L2 colon
# EXPERIMENTAL_PROTOCOL: NCI tumour cell line growth inhibition, 48 h
*1 amine or outer side, *2 acyl side, *3 side chain or, on linkers, in order; H or OH if unused. Where a SMILES comes first, the peptide text is derived from it. [ ]: non-standard residue; d: D form. ξ: configuration not given here. Ile(3ξ) = CCC(C)[C@H](N)C(=O)O; X33 = C=CCC(O[*:1])C(=O)[*:2]; NMeV = CN[C@H](C(=O)O)C(C)C; NMeA = CN[C@@H](C)C(=O)O; βAla = NCCC(=O)O
MEASUREMENT_NAME: TGI

// recorded TGI for COc1ccc2c(c1)C1C(CO2)C(c2ccccc2)=NN1c1ccccc1 (stereo unspecified) : > 100 µM

The compound listed as COC(=O)CCC1=NOC(CC2CC(CCC(=O)OC)=NO2)C1 (stereo unspecified) has a reported TGI of > 100 µM

Notebook: O=[N+]([O-])c1ccc(C2N3CCCCC3[C@H]3CCCCN23)cc1 (stereo partly specified) , TGI read as > 100 µM

The compound listed as CCOP(=S)(OCC)Oc1ccc2c(c1)OC(=O)C1(Cl)C2(C)C2(Cl)C(=O)Oc3cc(OP(=S)(OCC)OCC)ccc3C12C (stereo unspecified) has a reported TGI of 33.4 µM

// recorded TGI for CCN(C(=N)C#N)c1ccccc1 : > 100 µM

Lab book: TGI of CC(=O)[CH-]C(=O)c1ccccc1.CC(=O)[CH-]C(=O)c1ccccc1.CCN(CC)CC[O-].CCN(CC)CC[O-].Cl.[Hf+4] noted as > 100 µM

TGI recorded for this compound, CCOC(=O)/C(=C\c1ccccc1)C(=O)CCN1CCOCC1 , is 30.9 µM

Just so you know, measured TGI for CCNCCCCNCCCCNCCCCNCCCCNCC came out at > 100 µM

So, C=CCC1OC(=O)CCNC(=O)[C@H](C)N(C)C(=O)[C@H](C(C)C)N(C)C(=O)[C@H](C(C)CC)NC(=O)[C@@H]2CCCN2C1=O (stereo partly specified) (cyclo([Ile(3ξ)][NMeV][NMeA][βAla][X33]P)) ? Its TGI was > 52 µM

Record Cc1cccc(C(C)(C)C)c1NC(=O)CCl . Reported TGI: > 100 µM

Lookup result for CCOC(=O)c1csc(CCCCCCc2nc(C(=O)OCC)cs2)n1 ; measured TGI: > 100 µM

// CC1(C)OC(=O)C(c2cccs2)C(=O)O1 : TGI value = > 100 µM

// TGI lookup, compound = C[CH2][Sn]([CH2]C)([O]C(=O)c1cccc(OC)c1)[O][Sn]([CH2]C)([CH2]C)[O]C(=O)c1cccc(OC)c1 , result: > 100 µM

Briefly, TGI measured for Nc1nc2[nH]c(=O)cnc2c(=O)[nH]1 : > 91.4 µM

Lab note: measured TGI of O=C1c2ccccc2-c2ccccc2C(=O)C1(Br)Br was 31.8 µM

The measured TGI associated with CC(C)=CCCC(C)[C@H]1CC(O)C2(C)C3=CCC4C(C)(C)[C@@H](O)CC[C@]4(C)C3=CC[C@]12C (stereo partly specified) reads 93.6 µM

Notebook: O=C(c1ccc(Cl)cc1Cl)N(/N=C/C=C/c1ccccc1)c1nnc(-c2ccccc2)c(-c2ccccc2)n1 , TGI read as > 100 µM

Notebook: O=C1C=CC(=O)c2c(O)ccc(O)c21 , TGI read as 4.97 µM

The compound O=C1C(Cl)C(c2cc(Br)cc(Br)c2O)N1n1cnc2ccccc2c1=O (stereo unspecified) showed TGI equal to > 100 µM

The compound identified as COc1ccc(/C=C/C(=O)C(C)(C)C)cc1OC registered its TGI at > 100 µM

Looking up N#Cc1c2c(c(Cl)n3c1nc1ccccc13)CCCC2 , I found its TGI recorded as 7.48 µM

====

# Test system: HL-60(TB) leukemia
# EXPERIMENTAL_PROTOCOL: NCI tumour cell line growth inhibition, 48 h
MEASUREMENT_NAME: TGI

// TGI value for COC1=CC(=O)c2c(ccc3ncnc(N)c23)C1=O : 1.49 µM

Field TGI (entry C[C@]12CC[C@H](O)CC1=CC[C@@H]1C2CC[C@]2(C)c3n[nH]nc3CC12 (stereo not given in full) ) reads > 100 µM

Reported TGI of CCN(CC)CCn1ncc2c3c(=O)c4cccnc4n(CCN(CC)CC)c3ccc21 : > 10 µM

Given item C=C1C(=O)O[C@@H]2O[C@@]3(C)CC[C@H]4[C@H](C)CC[C@@H]1[C@@]24O3 , the value recorded as its TGI is > 100 µM

Memo: COc1ccc2c(c1)[C@@H]1c3cc(OC)c(OC)cc3CCN1CCC2 , reported TGI: > 100 µM

====

# Tested on: PC-3 prostate
# EXPERIMENTAL_PROTOCOL: NCI tumour cell line growth inhibition, 48 h
MEASUREMENT_NAME: TGI

GET /value?item= O=C(NC(=S)Nc1ccccn1)c1ccccc1 &field=TGI returns > 100 µM

Lab book: TGI of O=C(ON=c1c2ccccc2ccc2ccccc12)c1ccccc1 noted as > 93 µM

Query COc1cc(C)c2c(c1C=O)Oc1c(c(C)c(O)c3c1C(O)OC3=O)OC2=O (stereo unspecified) yields TGI of > 100 µM

For record CCOC(=O)c1ccc2c(c1)[n+](=O)c(C(=O)C1CCCS1)c(C(F)(F)F)n2[O-] (stereo unspecified) the listed TGI is 0.716 µM

Entry Fc1c(F)c(F)c2c(c1F)CSc1nc3ccccc3n1-2 ; TGI = > 100 µM

For this compound ( C/C(=N\NC(=S)Nc1ccccc1)c1nc2ncccc2[nH]1 ), measured TGI is > 100 µM

====

# Test system: MCF7 breast
# EXPERIMENTAL_PROTOCOL: NCI tumour cell line growth inhibition, 48 h
So I've got a bunch of molecules here, and I need their GI50 values.

Record CCNCCCn1c2c(c3ccc(F)cc3c1=O)C(=O)c1cc(OC)cnc1-2 , field GI50: 0.0427 µM

Entry under test: O=c1c2c([nH]c3ccccc13)CCCC2 . Its GI50 was > 100 µM

Sample COc1ccc2c(c1)oc1c(C)c3c(c(C)c12)C(=O)N(N)C3=O ; GI50 observed: 50.7 µM

The recorded GI50 for entry CN1CCCC1c1cccnc1.O=C(O)c1ccccc1O.O=C([O-])c1ccccc1[OH2+].O=C([O-])c1ccccc1[OH2+].O=C([O-])c1ccccc1[OH2+].[Cu+2] (stereo unspecified) equals 45.3 µM

Quick note, GI50 for COC(=O)[C@@H](C)C[C@H](Cc1ccccc1)NC(=O)c1cccc([C@@H](C[C@H](C(C)C)N(C)C(=O)[C@@H](NC(=O)[C@H]2CCCCN2C)C2CC2)OC(C)=O)n1 landed at 0.00333 µM

Record summary for O=C1NC(=O)/C(=C/c2c(Cl)nc3sccn23)S1 : reported GI50 = > 65.4 µM

Summary for this molecule, COc1ncc(-c2ccc3nccc(C#CCCCCC(=O)O)c3c2)cc1NS(=O)(=O)c1ccc(F)cc1F : GI50 is 0.015 µM

CCOC(=O)/C=C/C1=C(c2ccsc2)c2ccc(OC)cc2CC1 has a reported GI50 of 0.364 µM

Recorded GI50 (molecule COc1ccc(-c2c(-c3cc(OC)c(OC)c(OC)c3)nc3sc(C4CC4)nn23)cc1OC ): 1.96 µM

Just so you know, measured GI50 for C1=C/COCc2cc(ccc2OCCN2CCCC2)Nc2nccc(n2)-c2cccc(c2)COC/1 came out at 0.353 µM

Please fill in: GI50 reported for CC1(C)CCC2(CC1)N[C@@H](C(=O)N[C@@H]1CC[C@@H](C(N)=O)OC1)[C@H](c1ccnc(Cl)c1F)[C@]21C(=O)Nc2cc(Cl)ccc21 = 0.037 µM

Entry COc1ccc(-c2nnc(COc3ccc(Cl)cc3Cl)o2)cc1OC — recorded GI50 = 5.45 µM

The measured GI50 associated with O=C(/C=C/c1cc2ccccc2[nH]c1=O)c1ccc(Cl)cc1 reads 17.9 µM

Recorded GI50 (molecule O=C1c2ccccc2C(=O)c2c1c(=O)c(=O)c1ccccc1c(=O)n2Cc1ccccc1 ): 79.1 µM

get_value(item= N#C/C(=C\c1cn(Cc2ccccc2)c2ccccc12)C(=O)Nc1ncc(Cc2ccccc2Cl)s1 , readout=GI50) returns 3.01 µM

According to the records, this molecule Brc1ccc(SCN(CSc2ccc(Br)cc2)Cc2ccccc2)cc1 displays GI50 of 3.06 µM

====

Consider the following compounds; for each one, report its TGI.
# Test system: MOLT-4 leukemia
# EXPERIMENTAL_PROTOCOL: NCI tumour cell line growth inhibition, 48 h
*1 amine or outer side, *2 acyl side, *3 side chain or, on linkers, in order; H or OH if unused. Where a SMILES comes first, the peptide text is derived from it. [ ]: non-standard residue; d: D form. ξ: configuration not given here. Ile(3ξ) = CCC(C)[C@H](N)C(=O)O; X33 = C=CCC(O[*:1])C(=O)[*:2]; NMeV = CN[C@H](C(=O)O)C(C)C; NMeA = CN[C@@H](C)C(=O)O; βAla = NCCC(=O)O

Lookup result for C[C@]12CC[C@H](O)CC1=CC[C@@H]1C2CC[C@]2(C)c3n[nH]nc3CC12 (some centres undefined) ; measured TGI: > 100 µM

So for O=C1NN=C2C=C(c3ccc(Cl)cc3)CC(c3cccc(Br)c3)C12 (centres undefined) , the logged TGI turned out to be > 100 µM

// field: TGI; key: CCOC(=O)NC(Nc1ccc(OC(F)(F)F)cc1)(C(F)(F)F)C(F)(F)F ; value = > 100 µM

Field TGI (entry CCNCCCn1c2c(c3ccc(F)cc3c1=O)C(=O)c1cc(OC)cnc1-2 ) reads 0.369 µM

Consider CCOC(=O)/C(=C\c1ccccc1)C(=O)CCN1CCOCC1 . Its measured TGI is 5.3 µM

The compound identified as C=C1c2c(C)nn(-c3ccc(OC)cc3)c2N(C)C23C[C@@H]1C1(C)c4c(C)nn(-c5ccc(OC)cc5)c4N(C)C(C)(C[C@H]12)C3 (some centres undefined) registered its TGI at > 100 µM

Form: compound = COc1cc(/C=C/C(=O)Nc2ccc3c(c2)/C(=C\c2cccn2C)C(=O)N3)cc(OC)c1OC ; TGI = 82.4 µM

// sample COC1CCN(N(C)C)O1 (centres undefined) , its TGI was > 100 µM

get_value(item= C=CCC1OC(=O)CCNC(=O)[C@H](C)N(C)C(=O)[C@H](C(C)C)N(C)C(=O)[C@H](C(C)CC)NC(=O)[C@@H]2CCCN2C1=O (some centres undefined) (cyclo([Ile(3ξ)][NMeV][NMeA][βAla][X33]P)) , readout=TGI) returns > 100 µM

response.value for CCOC(=O)C(C(CC(=O)OC)NC(=O)OCc1ccccc1)C1(C)OCCO1 (centres undefined) (field: TGI) = > 100 µM

GET /value?item= O=C(CN=C(CN(c1ccccc1)c1ccccc1)Oc1c(Cl)cc(Cl)cc1Cl)N1c2ccccc2Sc2ccccc21 &field=TGI returns > 100 µM

Record Cc1ccc(NC(=O)/C(CC2N=c3c(ccc4c(O)c5ccccc5c(O)c34)=NC2O)=N/NC(C)(C)C)cc1 (centres undefined) , field TGI: 22.6 µM

Reported TGI for CCNCCCCNCCCCNCCCCNCCCCNCC was > 100 µM

The measured TGI associated with C[C@]1(O)CC[C@H]2[C@@H]3CCc4cc(O)ccc4[C@H]3CC[C@@]21C reads > 100 µM

Reported TGI of O=[N+]([O-])c1ccc(C2N3CCCCC3[C@H]3CCCCN23)cc1 (some centres undefined) : > 100 µM

Given item Fc1c(F)c(F)c2c(c1F)CSc1nc3ccccc3n1-2 , the value recorded as its TGI is > 100 µM

get_value(item= CCN(CC)CCn1ncc2c3c(=O)c4cccnc4n(CCN(CC)CC)c3ccc21 , readout=TGI) returns > 10 µM

TGI in this record for Cn1c2c([N+](=O)[O-])cccc2c(=O)c2c(O)cc3c(c21)C=CC(C)(C)O3 : > 100 µM

The compound COc1ccc2c(c1)[C@@H]1c3cc(OC)c(OC)cc3CCN1CCC2 showed TGI equal to > 100 µM
